# systemUnderTest: T1, recombinant human IL-23R/Fc chimera (R&D Systems) (human, UniProt Q5VWK5 24-353)
# T1 construct: bought; also called human IL-23R/Fc fusion protein; rhIL23RFc
# T1 sequence (looked up): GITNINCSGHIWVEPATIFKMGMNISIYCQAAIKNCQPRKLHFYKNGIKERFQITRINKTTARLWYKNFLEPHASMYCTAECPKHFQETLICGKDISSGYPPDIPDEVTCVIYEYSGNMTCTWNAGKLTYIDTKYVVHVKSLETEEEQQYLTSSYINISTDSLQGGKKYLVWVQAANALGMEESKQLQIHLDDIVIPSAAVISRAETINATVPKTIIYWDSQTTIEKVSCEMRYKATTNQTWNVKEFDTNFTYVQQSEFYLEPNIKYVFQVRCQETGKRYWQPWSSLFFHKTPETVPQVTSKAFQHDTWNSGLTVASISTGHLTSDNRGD
# experimentalProtocol: competition ELISA against IL-23
quantity: Ratio IC50 to 056-53.H4E IC50
Record the result as a number with its unit.

Using the record for 105-08-1D12 ATRIMER (designed binder) EPPTQKPKKIVNAKKDVVNTKMFEELKSRLDTLAQEVALLKEQQALQTVCLKGTKVHMKCFLAFTQTKTFHEASEDCISRGGTLSTPQTGSENDALYEYLRQSVGNEAEIWLGLNGSVLTDTWVDMTGARIAYKNWETEITAQPDGGFGYFGENCAVLSGAANGKWFDKRCRDQLPYICQFGIV , report its Ratio IC50 to 056-53.H4E IC50. 4.6 ratio

Using the record for 101-51-1A7 ATRIMER (designed binder) EPPTQKPKKIVNAKKDVVNTKMFEELKSRLDTLAQEVALLKEQQALQTVCLKGTKVHMKCFLAFTQTKTFHEASEDCISRGGTLSTPQTGSENDALYEYLRQSVGNEAEIWLGLNGSALTNTWVDMTGARIAYKNWERPPLYQPGGGWGVFGENCAVLSGAANGKWFDKRCRDQLPYICQFGIV , report its Ratio IC50 to 056-53.H4E IC50. 1 ratio

Using the record for 105-08-1D10 ATRIMER (designed binder, not shown: C-terminal tag: His/Myc (pANA4) or HA-StrepII (pANA10)) EPPTQKPKKIVNAKKDVVNTKMFEELKSRLDTLAQEVALLKEQQALQTVCLKGTKVHMKCFLAFTQTKTFHEASEDCISRGGTLSTPQTGSENDALYEYLRQSVGNEAEIWLGLNGSARTGTWVDMTGARIAYKNWETEITAQPDGGWGYFGENCAVLSGAANGKWFDKRCRDQLPYICQFGIV , report its Ratio IC50 to 056-53.H4E IC50. 5.5 ratio

Using the record for 105-20-2A3 ATRIMER (designed binder, not shown: C-terminal tag: Myc/His6 (pANA4) or HA-StrepII (pANA10); A Ser left at the ompA junction may also sit at the N-terminus) EPPTQKPKKIVNAKKDVVNTKMFEELKSRLDTLAQEVALLKEQQALQTVCLKGTKVHMKCFLAFTQTKTFHEASEDCISRGGTLSTPQTGSENDALYEYLRQSVGNEAEIWLGLNGSPITNTWVDMTGARIAYKNWETEITAQPDGGFGYFGENCAVLSGAANGKWFDKRCRDQLPYICQFGIV , report its Ratio IC50 to 056-53.H4E IC50. 1.2 ratio

Using the record for 105-20-2C11 ATRIMER (designed binder) EPPTQKPKKIVNAKKDVVNTKMFEELKSRLDTLAQEVALLKEQQALQTVCLKGTKVHMKCFLAFTQTKTFHEASEDCISRGGTLSTPQTGSENDALYEYLRQSVGNEAEIWLGLNGSVRTDTWVDMTGARIAYKNWETEITAQPDGGWGYFGENCAVLSGAANGKWFDKRCRDQLPYICQFGIV , report its Ratio IC50 to 056-53.H4E IC50. 4.8 ratio

Using the record for 105-20-2F12 ATRIMER (designed binder, not shown: C-terminal tag: His/Myc (pANA4) or HA-StrepII (pANA10)) EPPTQKPKKIVNAKKDVVNTKMFEELKSRLDTLAQEVALLKEQQALQTVCLKGTKVHMKCFLAFTQTKTFHEASEDCISRGGTLSTPQTGSENDALYEYLRQSVGNEAEIWLGLNGSKLTDTWVDMTGARIAYKNWETEITAQPDGGFGYFGENCAVLSGAANGKWFDKRCRDQLPYICQFGIV , report its Ratio IC50 to 056-53.H4E IC50. 2.8 ratio

Using the record for 105-08-1C9 ATRIMER (designed binder, not shown: C-terminal tag: His/Myc (pANA4) or HA-StrepII (pANA10)) EPPTQKPKKIVNAKKDVVNTKMFEELKSRLDTLAQEVALLKEQQALQTVCLKGTKVHMKCFLAFTQTKTFHEASEDCISRGGTLSTPQTGSENDALYEYLRQSVGNEAEIWLGLNGSTLTDTWVDMTGARIAYKNWETEITAQPDGGFGYFGENCAVLSGAANGKWFDKRCRDQLPYICQFGIV , report its Ratio IC50 to 056-53.H4E IC50. 7.4 ratio

Using the record for 101-113-6C102 ATRIMER (designed binder, ATRIMER is a homotrimer; one protomer is given., not shown: C-terminal purification tag: Myc/His6 (pANA4) or HA-StrepII (pANA10)) EPPTQKPKKIVNAKKDVVNTKMFEELKSRLDTLAQEVALLKEQQALQTVCLKGTKVHMKCFLAFTQTKTFHEASEDCISRGGTLSTPQTGSENDALYEYLRQSVGNEAEIWLGLNGSNVTQTWVDMTGARIAYKNWEPPPPHHPQGGFGVFGENCAVLSGAANGKWFDKRCRDQLPYICQFGIV , report its Ratio IC50 to 056-53.H4E IC50. 2 ratio

Using the record for 105-20-1A6 ATRIMER (designed binder, not shown: C-terminal tag: His/Myc (pANA4) or HA-StrepII (pANA10)) EPPTQKPKKIVNAKKDVVNTKMFEELKSRLDTLAQEVALLKEQQALQTVCLKGTKVHMKCFLAFTQTKTFHEASEDCISRGGTLSTPQTGSENDALYEYLRQSVGNEAEIWLGLNGSAKTGTWVDMTGARIAYKNWETEITAQPDGGWGYFGENCAVLSGAANGKWFDKRCRDQLPYICQFGIV , report its Ratio IC50 to 056-53.H4E IC50. 6.6 ratio
